test summary: Hepatocyte stability, mice
Assay type: in vitro ADME
recorded conditions: mouse, pH 7.4
*1 amine or outer side, *2 acyl side, *3 side chain or, on linkers, in order; H or OH if unused. Where a SMILES comes first, the peptide text is derived from it. [ ]: non-standard residue; d: D form. X3 = C#CCOc1ccc([C@@H](OC)[C@H](N[*:1])C(=O)[*:2])cc1; NMeLeu(5-OH,4R) = CN[C@@H](C[C@@H](C)CO)C(=O)O; Trp(1-Me) = Cn1cc(C[C@H](N)C(=O)O)c2ccccc21; NMeL = CN[C@@H](CC(C)C)C(=O)O
measurement type: Hepatocyte Stability Mouse QH
# number then unit; no other words

compound	measurement type	assay value
C#CCOc1ccc([C@@H](OC)[C@@H]2NC(=O)[C@H](C)NC(=O)[C@H](C[C@@H](C)CO)N(C)C(=O)[C@H](Cc3cn(C)c4ccccc34)NC(=O)[C@H](C(C)C)NC(=O)[C@H](CC(C)C)N(C)C(=O)[C@H](C(C)C)NC2=O)cc1 [SI-38] (cyclo(A[X3]V[NMeL]V[Trp(1-Me)][NMeLeu(5-OH,4R)]))	Hepatocyte Stability Mouse QH	15.001%

Q: Returns the measured Hepatocyte Stability Mouse QH for the input compound. Input: CCCCCn1cc(C[C@@H]2NC(=O)[C@H](CC(C)C)N(C)C(=O)[C@H](C(C)C)NC(=O)[C@H]([C@H](OC)c3ccccc3)NC(=O)[C@H](C)NC(=O)[C@H](C[C@@H](C)CO)N(C)C(=O)[C@H](Cc3cn(C)c4ccccc34)N(C)C2=O)nn1 [Compound 25]
A: 27.872%
